The origin of these recorded values is ChEMBL document CHEMBL1961873.

Biological target: Serine/threonine-protein kinase Nek6 (Homo sapiens);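 further: values are mean inhibition of NEK6 from the GSK PKIS screen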
Details: at 1 µM
Please respond with reported inhibition for every item in the list.
Numbers only, in %.

A selection of reference data follows.
NS(=O)(=O)c1cccc(Nc2cc(-c3ccc(F)cc3)n[nH]2)c1 :: 6.59
NS(=O)(=O)c1ccc(-c2cc3ccncc3cc2OCc2ccccc2)cc1 :: 3.3
COc1cccc(-n2ncc3c(N/N=C/c4ccc(C)cc4)ncnc32)c1 :: 3.08

Batch: inhibition for all items listed.
1. N#Cc1c(NC(=O)c2ccccc2F)sc2c1CCCC2
2. CCS(=O)(=O)c1ccc(OC)c(Nc2ncc(-c3cccc(OC)c3)o2)c1

[-1.45, 0.87]

Which measured inhibition value corresponds to CCOc1nccc2c1nc(-c1nonc1N)n2CC ?
5.08

* * *

Target: Casein kinase I isoform gamma-1 (Homo sapiens);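 further: reported value is the mean inhibition of CK1 gamma-1 kinase activity across replicate measurements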
Details: at 1 µM
Please respond with reported inhibition for every item in the list.
One number for each entry, in %.

A selection of reference data follows.
OCc1ccc(-c2nc(-c3ccccn3)c(-c3ccc4c(c3)OCO4)[nH]2)cc1 :: 5.16
FC(F)(F)c1ccc(-c2nn3ncccc3c2-c2ccnc(Nc3ccc4c(c3)OCCO4)n2)cc1 :: 0.59
Cc1nc(-c2ccccc2)n2nc(NCCCN3CCOCC3)ncc12 :: 2.66
NS(=O)(=O)c1ccc(-c2cc3ccncc3cc2OCc2ccccc2)cc1 :: 3.44
COc1ccc2ncnc(Nc3ccc(OCc4ccccc4)cc3)c2c1 :: 2.76

Batch: inhibition for all items listed.
1. N#Cc1c(NC(=O)c2ccccc2F)sc2c1CCCC2
2. Nc1ccc(C#Cc2cncnc2Nc2ccc(OCc3cccc(F)c3)c(Cl)c2)cc1
3. CN(C)C(=O)O[C@H]1CN[C@H](C#Cc2cc3ncnc(Nc4ccc(OCc5cccc(F)c5)c(Cl)c4)c3s2)C1
4. CCn1c(-c2nonc2N)nc2c(C#CC(C)(C)O)nc(OCCNC)cc21
5. NS(=O)(=O)c1cccc(-c2cc3ccncc3cc2OCc2ccccc2)c1
6. O=C1Nc2ccc(-c3cccnc3)cc2C1=Cc1cc(Br)c(O)c(Br)c1

[-0.65, 2.66, 2.06, 4.48, 4.83, 4.74]

Batch: inhibition for all items listed.
1. NC(=O)c1sc(-n2cnc3ccccc32)cc1OCc1ccccc1Br
2. C[C@@H](Oc1cc(-n2cnc3ccc(OCC4CCN(C)CC4)cc32)sc1C(N)=O)c1ccccc1C(F)(F)F
3. NS(=O)(=O)c1ccc(Nc2cc(-c3cccc(O)c3)n[nH]2)cc1
4. Cc1ccc2c(c1)/C(=N/Nc1ccc(S(N)(=O)=O)cc1)C(=O)N2
5. NC(=O)c1cccc(Nc2nccc(Nc3cccc(F)c3)n2)c1
6. CN(C)C(=O)O[C@@H]1CN[C@@H](C#Cc2cc3ncnc(Nc4ccc(OCc5cccc(F)c5)c(Cl)c4)c3s2)C1
7. ON=C1CCc2cc(-c3nc(C4CCNCC4)[nH]c3-c3ccncc3)ccc21

[5.15, -1.25, 6.27, 1.26, 1.67, 6.01, 1.66]

Batch: inhibition for all items listed.
1. CN(c1ccc(NC(=O)Nc2ccc(OC(F)(F)F)cc2)cc1)c1ccnc(Nc2cccc(S(N)(=O)=O)c2)n1
2. O=C(Nc1ccc(Oc2ccc3[nH]c(NC(=O)c4ccco4)nc3c2)cc1)Nc1cc(C(F)(F)F)ccc1F

1. 3.06
2. -2.12

* * *

Please respond with reported inhibition for every item in the list.
Target: Mitogen-activated protein kinase kinase kinase kinase 4 (Homo sapiens) (UniProt O95819)
Sequence (O95819 2-1239 limits assumed): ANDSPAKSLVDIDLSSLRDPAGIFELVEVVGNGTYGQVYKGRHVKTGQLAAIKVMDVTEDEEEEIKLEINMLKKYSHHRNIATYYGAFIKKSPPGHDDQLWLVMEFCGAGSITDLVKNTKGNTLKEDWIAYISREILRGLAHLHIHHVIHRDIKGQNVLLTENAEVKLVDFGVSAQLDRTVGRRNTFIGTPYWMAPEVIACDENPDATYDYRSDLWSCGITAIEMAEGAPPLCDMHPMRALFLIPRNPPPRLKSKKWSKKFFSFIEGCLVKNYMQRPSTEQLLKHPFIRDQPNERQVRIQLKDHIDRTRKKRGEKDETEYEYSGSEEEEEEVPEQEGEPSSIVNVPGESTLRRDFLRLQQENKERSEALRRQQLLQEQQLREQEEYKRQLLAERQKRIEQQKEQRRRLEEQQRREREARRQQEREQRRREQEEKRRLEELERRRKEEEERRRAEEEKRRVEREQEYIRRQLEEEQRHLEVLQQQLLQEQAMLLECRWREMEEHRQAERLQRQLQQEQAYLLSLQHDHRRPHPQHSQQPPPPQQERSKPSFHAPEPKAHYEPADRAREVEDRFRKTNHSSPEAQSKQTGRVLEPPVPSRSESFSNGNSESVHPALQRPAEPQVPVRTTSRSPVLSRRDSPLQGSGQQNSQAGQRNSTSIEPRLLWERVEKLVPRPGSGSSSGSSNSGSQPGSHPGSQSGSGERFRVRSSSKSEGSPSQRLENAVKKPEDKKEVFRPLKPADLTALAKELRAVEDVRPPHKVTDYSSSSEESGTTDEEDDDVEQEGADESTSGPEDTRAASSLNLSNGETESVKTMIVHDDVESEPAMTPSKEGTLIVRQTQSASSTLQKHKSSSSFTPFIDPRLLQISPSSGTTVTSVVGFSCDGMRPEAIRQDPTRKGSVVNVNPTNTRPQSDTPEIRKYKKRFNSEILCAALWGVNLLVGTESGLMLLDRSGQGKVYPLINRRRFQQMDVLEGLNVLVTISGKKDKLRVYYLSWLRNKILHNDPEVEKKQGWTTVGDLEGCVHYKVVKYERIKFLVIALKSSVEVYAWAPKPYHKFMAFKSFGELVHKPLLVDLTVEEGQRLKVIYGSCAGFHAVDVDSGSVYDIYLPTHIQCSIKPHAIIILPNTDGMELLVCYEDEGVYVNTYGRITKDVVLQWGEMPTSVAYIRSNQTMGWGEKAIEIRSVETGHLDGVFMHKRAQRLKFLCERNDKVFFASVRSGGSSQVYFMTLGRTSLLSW
Conditions: at 0.1 µM
Description: GSK_PKIS: MAP4K4 mean inhibition at 0.1 uM [Nanosyn]
Include the unit right after the number.

O=C1Nc2ccccc2/C1=C/Nc1ccc2[nH]c(=O)[nH]c2c1 :: 25.3%
O=C1Nc2ccc(-c3cccnc3)cc2C1=Cc1cc(Br)c(O)c(Br)c1 :: 69.3%
c1ccc(Cc2nc3ccc(Nc4ncnc5ccccc45)cc3[nH]2)cc1 :: 4.28%

Batch: inhibition for all items listed.
1. Cc1ccc2c(c1)/C(=N/Nc1ccc(S(N)(=O)=O)cc1)C(=O)N2
2. CN(C)c1cc2c(Nc3ccc4c(cnn4Cc4ccccc4)c3)ncnc2cn1

27.3%
2.93%

* * *

Biological target: Protein-tyrosine kinase 6 (Homo sapiens)
Conditions: at 1 µM
Description: GSK_PKIS: BRK mean inhibition at 1 uM [Nanosyn]
recorded-metric: inhibition

A selection of reference data follows.
c1ccc(Nc2ncc(-c3ccccc3)o2)cc1 :: 7.06%
NC(=O)c1sc(-n2cnc3ccccc32)cc1OCc1ccccc1Br :: 7.25%
COc1ccc(-c2nn3ncccc3c2-c2ccnc(Nc3cccc(C(F)(F)F)c3)n2)cc1 :: 17.9%
NS(=O)(=O)c1ccc(Nc2cc(-c3cccc(O)c3)n[nH]2)cc1 :: 6.34%

Batch: inhibition for all items listed.
1. NS(=O)(=O)c1cccc(-c2cc3ccncc3cc2OCc2ccccc2)c1
2. COc1cc(/C=N/Nc2ncnc3c2cnn3C(C)C)ccc1O

4.64%
4.8%

* * *

System: Mast/stem cell growth factor receptor Kit (Homo sapiens), P10721 [T670I]
Sequence (P10721 whole entry T670I): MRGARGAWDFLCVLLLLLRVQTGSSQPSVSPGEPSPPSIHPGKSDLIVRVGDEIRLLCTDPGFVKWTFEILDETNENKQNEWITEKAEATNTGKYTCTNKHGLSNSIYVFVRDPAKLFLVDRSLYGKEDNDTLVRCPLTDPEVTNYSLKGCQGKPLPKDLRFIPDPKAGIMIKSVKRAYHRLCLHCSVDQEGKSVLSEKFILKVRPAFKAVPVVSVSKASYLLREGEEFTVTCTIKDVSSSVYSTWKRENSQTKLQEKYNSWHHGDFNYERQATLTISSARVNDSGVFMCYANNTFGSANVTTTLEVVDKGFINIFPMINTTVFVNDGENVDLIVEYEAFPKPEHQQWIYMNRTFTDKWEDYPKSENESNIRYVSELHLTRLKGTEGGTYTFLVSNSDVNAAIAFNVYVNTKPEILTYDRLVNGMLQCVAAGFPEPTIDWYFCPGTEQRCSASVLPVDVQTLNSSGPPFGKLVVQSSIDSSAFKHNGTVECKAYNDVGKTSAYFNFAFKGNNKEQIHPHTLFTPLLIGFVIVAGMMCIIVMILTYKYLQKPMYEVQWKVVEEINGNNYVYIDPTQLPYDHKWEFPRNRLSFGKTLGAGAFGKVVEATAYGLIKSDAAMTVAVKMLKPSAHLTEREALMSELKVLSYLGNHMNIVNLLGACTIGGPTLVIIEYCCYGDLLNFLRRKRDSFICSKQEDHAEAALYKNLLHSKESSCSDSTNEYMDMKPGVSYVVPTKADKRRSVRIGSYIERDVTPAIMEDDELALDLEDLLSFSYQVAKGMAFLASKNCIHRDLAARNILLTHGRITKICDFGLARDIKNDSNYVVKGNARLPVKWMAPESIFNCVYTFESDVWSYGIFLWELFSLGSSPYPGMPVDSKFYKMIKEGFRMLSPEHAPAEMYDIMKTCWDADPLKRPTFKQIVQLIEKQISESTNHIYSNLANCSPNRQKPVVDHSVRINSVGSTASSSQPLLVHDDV
Settings: at 1 µM
Please respond with reported inhibition for every item in the list.
Give bare numbers, in %.

A selection of reference data follows.
COc1cc(/C=N/Nc2ncnc3c2cnn3C(C)C)ccc1O :: -0.48
Nc1nccc(-c2c(-c3ccc(F)cc3)ncn2CCCN2CCOCC2)n1 :: 0.35
Cc1ccc2c(-c3ccnc(Nc4cccc(C(F)(F)F)c4)n3)c(-c3ccccc3)nn2n1 :: 3.44
Cc1cc(O)cc(C)c1/C=C/c1cncc(C(=O)N(C)C)c1 :: 1.57
COC(=O)c1cncc(/C=C/c2c(C)cc(O)cc2C)c1 :: 0.94

Batch: inhibition for all items listed.
1. CC(C)c1ccc(Nc2nccc(-c3cnn4ncccc34)n2)cc1
2. OCc1ccc(-c2nc(-c3ccccn3)c(-c3ccc4c(c3)OCO4)[nH]2)cc1
3. FC(F)(F)c1ccc(-c2nn3ncccc3c2-c2ccnc(Nc3ccc4c(c3)OCCO4)n2)cc1
4. CCn1c(-c2nonc2N)nc2c(C#CC(C)(C)O)nc(OCCNC)cc21

[81.3, 0.71, 6.31, 3.65]

Batch: inhibition for all items listed.
1. Cc1ccc(C(=O)NC2CC2)cc1-c1ccc2[nH]ncc2c1
2. CCS(=O)(=O)c1ccc(OC)c(Nc2ncc(-c3cccc(OC)c3)o2)c1

1: -3.32; 2: 67.6

* * *

Biological target: Insulin receptor (Homo sapiens);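 further: each figure is a mean inhibition value from the GSK PKIS screening panel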
Conditions: at 1 µM
recorded-metric: inhibition (%)
Give bare numbers, in %.

CCOc1nccc2c1nc(-c1nonc1N)n2CC :: -1.17
NC(=O)c1cccc(Nc2nccc(Nc3cccc(F)c3)n2)c1 :: 21.1
Cc1ccc(C(=O)NC2CC2)cc1-c1ccc2[nH]ncc2c1 :: -2.94
COc1cc2ncnc(Nc3ccc4c(cnn4Cc4ccccc4)c3)c2cc1OC :: 3.75
Cc1cc(Cl)cc2c1NC(=O)C2=NNc1ccc(S(N)(=O)=O)cc1 :: 4.18

Batch: inhibition for all items listed.
1. Cc1cc(O)cc(C)c1/C=C/c1cncc(C(=O)N(C)C)c1
2. N#Cc1cccc(Nc2nccc(-c3cnn4ncccc34)n2)c1
3. COC(=O)Nc1nc2cc(Oc3ccc(NC(=O)Nc4cccc(Br)c4)cc3)ccc2[nH]1
4. NS(=O)(=O)c1ccc(NC=C2C(=O)Nc3ccc4ncsc4c32)cc1
5. COC(=O)c1ccc2c(c1)C(=Cc1cc(Br)c(O)c(Br)c1)C(=O)N2
6. FC(F)(F)c1ccc(-c2nn3ncccc3c2-c2ccnc(Nc3ccc4c(c3)OCCO4)n2)cc1

0.32
40.9
5.63
29.7
3.99
0.63

* * *

Test system: Mast/stem cell growth factor receptor Kit (Homo sapiens), P10721 [T670I]
Settings: at 0.1 µM
Please respond with reported inhibition for every item in the list.
Numbers only, in %.

A selection of reference data follows.
CCn1c(-c2nonc2N)nc2ccc(F)cc21 :: 3.59
NS(=O)(=O)c1ccc(N/N=C2\C(=O)Nc3ccc(Cl)cc32)cc1 :: 5.37
COc1ccc(-c2nn3ncccc3c2-c2ccnc(Nc3cccc(C(F)(F)F)c3)n2)cc1 :: 3.67
COC(=O)c1cncc(/C=C/c2c(C)cc(O)cc2C)c1 :: 2.73
CS(=O)(=O)Nc1cccc(-c2ccc3c(NC(=O)C4CC4)n[nH]c3c2)c1 :: -1.01
CCS(=O)(=O)c1ccc(OC)c(Nc2ncc(-c3cccc(OC)c3)o2)c1 :: 10.8
N#Cc1cccc(Nc2nccc(-c3cnn4ncccc34)n2)c1 :: 32.2
NS(=O)(=O)c1cccc(Nc2cc(-c3ccc(F)cc3)n[nH]2)c1 :: 3.28
c1ccc(Nc2ncc(-c3ccccc3)o2)cc1 :: 4.48
Cc1cc(-c2ccccn2)cc(C)c1/C=C/c1cncc(-c2nn[nH]n2)c1 :: 5.04

Now for another entry.
Hello, I am looking for reported inhibition with Mast/stem cell growth factor receptor Kit (Homo sapiens), P10721 [T670I] for Nc1nccc(C#Cc2cncnc2Nc2ccc(OCc3cccc(F)c3)c(Cl)c2)n1 . Could you help?
1.97

* * *

Molecular target: Serine/threonine-protein kinase SIK1 (Homo sapiens) (UniProt P57059);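 further: mean inhibition value from the GSK PKIS profiling set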
Sequence (P57059 whole entry): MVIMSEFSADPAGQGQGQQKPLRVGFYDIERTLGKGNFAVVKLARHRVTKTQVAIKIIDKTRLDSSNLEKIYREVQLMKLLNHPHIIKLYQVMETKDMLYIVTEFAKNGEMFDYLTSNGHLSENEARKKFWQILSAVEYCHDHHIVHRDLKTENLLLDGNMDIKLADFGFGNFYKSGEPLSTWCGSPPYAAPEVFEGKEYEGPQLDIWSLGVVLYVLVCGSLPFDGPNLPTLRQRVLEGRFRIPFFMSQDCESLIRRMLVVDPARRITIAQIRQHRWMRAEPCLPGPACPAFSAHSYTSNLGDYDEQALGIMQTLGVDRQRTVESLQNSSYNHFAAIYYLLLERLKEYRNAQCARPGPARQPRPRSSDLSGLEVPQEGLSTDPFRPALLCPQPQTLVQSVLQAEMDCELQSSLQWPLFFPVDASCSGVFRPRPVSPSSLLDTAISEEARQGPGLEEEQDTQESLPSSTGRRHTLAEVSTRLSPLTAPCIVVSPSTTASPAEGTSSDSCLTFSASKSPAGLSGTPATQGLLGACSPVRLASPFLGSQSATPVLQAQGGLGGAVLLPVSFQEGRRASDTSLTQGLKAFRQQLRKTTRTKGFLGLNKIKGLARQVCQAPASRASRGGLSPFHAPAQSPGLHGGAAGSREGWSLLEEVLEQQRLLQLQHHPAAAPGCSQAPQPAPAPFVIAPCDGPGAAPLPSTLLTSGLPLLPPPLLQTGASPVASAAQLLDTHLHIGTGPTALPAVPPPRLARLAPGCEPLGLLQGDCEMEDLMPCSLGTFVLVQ
Conditions: at 1 µM
recorded-metric: inhibition (%)
Numbers only, in %.

A selection of reference data follows.
Nc1nccc(-c2c(-c3ccc(F)cc3)ncn2CCCN2CCOCC2)n1 :: 6.36
NS(=O)(=O)c1ccc(Nc2cc(-c3cccc(O)c3)n[nH]2)cc1 :: 13.8

Batch: inhibition for all items listed.
1. COc1cc(Nc2nccc(-c3cnn4ncccc34)n2)cc(OC)c1
2. [O-][S+]1CCN(Cc2ccc(-c3ccc4ncnc(Nc5ccc(OCc6ccccc6)c(Cl)c5)c4c3)o2)CC1
3. NS(=O)(=O)c1ccc(-c2cc3ccncc3cc2OCc2ccccc2)cc1

1: 32.3; 2: 7.59; 3: 10.3
